Exercise: for every item that follows, state its recorded melting point.
Give bare numbers, in °C.

>>> test_value("CC1C2Cc3ccc(O)cc3C1(C)CCN2CCc1ccccc1 (stereo not drawn)")
181

For the 7 compounds below, give their melting point values.
1. Nc1ccc(S)cc1
2. NC(=O)c1nc(-c2ccccc2)n(-c2ccc(Cl)c(COCC(F)(F)C(F)(F)F)c2)n1
3. O=[N+]([O-])c1cc(F)c(Br)cc1F
4. Cc1ccc(F)c(CO)c1Cl
5. C=CCC1=C(OC(C)=O)C2=CC=C3C(C)=C(C)C(=O)CC3(C)C2=C(O)C1=O (stereo not drawn)
6. CC(=O)C(C(C)=O)=C1SC2=C(C(=O)c3ccccc3C2=O)N1c1ccccc1
7. OCCN(CCO)C(CO)(CO)CO

1. 46
2. 146
3. 56
4. 69
5. 93
6. 254
7. 104

====

Exercise: for every item that follows, state its recorded melting point.

Answered cases to consult:
>>> test_value("CC(C)(C)c1cc(N)c(C(N)=O)s1")
"146 to 148 °C"
>>> test_value("COc1cc(O)c(C(C)=O)c(O)c1")
"144 to 149 °C"
>>> test_value("CCOC(=O)C(Br)C(Br)c1ccccc1 (configuration not stated)")
"77 to 79 °C"
>>> test_value("CCOC(=O)c1cc2cc(OC(F)(F)F)ccc2[nH]1")
"144 to 145 °C"
>>> test_value("Cc1ccc(S(=O)(=O)OCCOCCOCCOS(=O)(=O)c2ccc(C)cc2)cc1")
"80 to 82 °C"
>>> test_value("COc1ccc(C2(C(=O)O)CCCCC2)cc1")
"172 to 177 °C"
>>> test_value("COC(=O)CC(C)CCC1C(C)(O)CCC2C(C)(C)CCCC21C (configuration not stated)")
"68.3 to 71.3 °C"
>>> test_value("O=C(Cl)c1nnc(-c2ccccc2)o1")
"80 to 90 °C"

For the 4 compounds below, give their melting point values.
1. CN1CC[C@@H](c2ccc(F)cc2)[C@H](CO)C1
2. COC(=O)CCc1ccc(O)cc1
3. O=C1CCCN1c1ccc(F)cc1
4. NNC(=O)c1ccc(Cl)c(Br)c1

1: 97 to 101 °C; 2: 37 to 41 °C; 3: 55 to 58 °C; 4: 165 to 168 °C

====

quantity measured: melting point

>>> test_value("Brc1cccc(N2CCCC2)n1")
"86 to 88 °C"

For the 6 molecules below, give their melting point values.
1. O=C(O)c1cc(C(=O)O)c(C(=O)O)cc1C(=O)O
2. CC(C)(C)OC(=O)C=P(c1ccccc1)(c1ccccc1)c1ccccc1
3. CC1(C)C2CCC(O2)C(Cl)C1O (centres undefined)
4. COc1cc2c(cc1OC)C(c1ccccc1)N(C(C)=O)CC2 (centres undefined)
5. COC(=O)c1cc2ccccc2c(OC(=O)c2ccccc2C)c1C(=O)OC
6. NC(CSc1ncccc1C(F)(F)F)=NO

["281 to 284 °C", "146 to 151 °C", "71 to 72 °C", "195 to 197 °C", "138 to 140 °C", "161 to 164 °C"]

For the 6 molecules below, give their melting point values.
1. Nc1nnc(SCC(=O)Nc2ccc3c(c2)OCO3)s1
2. c1ccc2cc3cc4cc5ccccc5cc4cc3cc2c1
3. Cn1nc(CCl)cc1-c1ccccc1
4. Cc1nc(Cl)c2c3c(sc2n1)CCCC3
5. NS(=O)(=O)c1cccc(C(=O)c2ccccc2)c1
6. CC(=O)c1c(C)nc2cc3nc(C)c(C(C)=O)c(C)c3cc2c1C

1: 196 to 198 °C; 2: 300 °C; 3: 59 to 61 °C; 4: 94 to 95 °C; 5: 144 °C; 6: 246 to 248 °C

For the 3 molecules below, give their melting point values.
1. CC(C)(C)OC(=O)N1CCC(Oc2ccccc2N)CC1
2. Clc1cccc2c(C#Cc3ccccc3)c3cccc(Cl)c3c(C#Cc3ccccc3)c12
3. CCOC(=O)c1c(Nc2ccc(OC)cc2)sc2c(-c3ccc(Cl)cc3)c(C#N)c(N)nc12

71 to 78 °C
167 to 170 °C
220 to 224 °C

For the 2 molecules below, give their melting point values.
1. C/C(=N/NC(N)=O)C(=O)Nc1ccccc1
2. CCNS(=O)(=O)C(F)(F)C(F)(F)C(F)(F)C(F)(F)C(F)(F)C(F)(F)C(F)(F)C(F)(F)F

236 to 238 °C
96 °C

For the 2 molecules below, give their melting point values.
1. O=C(Cl)c1cnn2ccccc12
2. COc1ccc(-c2ccc(OC)cc2)cc1

["116 to 118 °C", "177 to 181 °C"]

For the 4 molecules below, give their melting point values.
1. Cn1nc(C2CC2)cc1N
2. COC(=O)C(Cl)C(C)=O (centres undefined)
3. CC(C)P(c1ccccc1)c1ccccc1
4. Cn1nc(C(=O)O)cc1-c1cccs1

1: 120 to 123 °C; 2: -33 °C; 3: 40 °C; 4: 156 to 158 °C

====

Exercise: for every item that follows, state its recorded melting point.

>>> test_value("Cc1ccc(C2NC(=O)NC(c3ccc(C)cc3)C2(C#N)C(=O)c2ccccc2)cc1 (stereo not drawn)")
"234 to 235 °C"

For the 6 compounds below, give their melting point values.
1. N#CCc1ccc(Cl)cc1Cl
2. Cc1cc(=O)oc2cc(O)c(Cl)cc12
3. CC(C)(C)CC(=O)C=C1Nc2ccccc2NC1=CC(=O)CC(C)(C)C
4. O=[N+]([O-])c1coc2ccc(O)cc12
5. O=c1[nH]nc([N+](=O)[O-])c(Cl)c1Cl
6. ClCOc1ccc(Cl)cc1

["60 to 63 °C", "278 to 280 °C", "220 to 222 °C", "164 to 165 °C", "184 to 186 °C", "29 to 30 °C"]

I am curious: what melting point value has been reported for O=S(=O)(Cl)c1sccc1Br ?
39 to 41.5 °C

====

quantity measured: melting point

Answered cases to consult:
>>> test_value("NCc1cccc2c(Br)cccc12")
"138 to 139 °C"
>>> test_value("O=C(O)c1csc(-c2ccc(C(F)(F)F)cc2)n1")
"186 to 188 °C"
>>> test_value("CCOC(=O)c1cc(-c2cccs2)n[nH]1")
"137 to 139 °C"

Please examine the following record next.
I am curious: what melting point value has been reported for C=CCOc1cc(O)c(C(C)=O)c(O)c1 ?
145 to 146 °C

====

Parameter threshold = 100 °C. Response is y when melting point meets or exceeds it, else n.

>>> qualitative_label("FC(F)(F)N=C1SC(=Nc2ccccc2)N(c2ccccc2)C1=NC(F)(F)F")
"y"
>>> qualitative_label("O=Cc1ccc(-c2ccc(C=O)cc2)cc1")
"y"
>>> qualitative_label("CCCOc1ccc(C#N)cc1")
"n"
>>> qualitative_label("CC1=C(C(=O)OC(C)C)C(c2ccco2)NC(=S)N1 (configuration not stated)")
"y"

From here, focus on the item given below.
Is the recorded value of melting point equal to or greater than 100 °C for this compound? O=C1NCCN1
y

====

quantity measured: melting point

>>> test_value("CC(=NO)c1cccnc1")
"103 to 105 °C"
>>> test_value("NC(=S)c1ccc(Oc2ccc(C(F)(F)F)cn2)cc1")
"175 to 178 °C"

Please examine the following record next.
I am curious: what melting point value has been reported for COC(=O)C1=C(C(=O)OC)CC2=C(CC3=C(C2)CC(C(=O)OC)=C(C(=O)OC)C3)C1 ?
260 to 262 °C

====

Exercise: for every item that follows, state its recorded melting point.

Answered cases to consult:
>>> test_value("CCOC(=O)C12CCC(C(=O)OCC)(CC1=O)C(=O)C2")
"111 to 113 °C"
>>> test_value("O=C(O)Cc1c[nH]c2ccc(O)cc12")
"162 to 165 °C"
>>> test_value("Cc1ccc2sc(Br)cc2c1")
"92 to 93 °C"
>>> test_value("CCOC(=O)/C=C/c1ccc2ccc(=O)[nH]c2c1")
"209 to 210 °C"
>>> test_value("CCOC(=O)c1sc(SC)c2c1-c1ccccc1N(C)S2(=O)=O")
"190 to 193 °C"

For the 2 compounds below, give their melting point values.
1. Brc1ccc(Oc2ccc(Br)cc2Br)c(Br)c1
2. O=C(Nc1ccc([N+](=O)[O-])cc1)C(C(F)(F)F)(C(F)(F)F)C(F)(F)F

78.5 to 79 °C
280 to 282 °C

For the 4 compounds below, give their melting point values.
1. OCCCc1ccncc1
2. OCCc1c(Cl)cccc1Cl
3. COC(=O)c1cnc(SCC(=O)NC(=O)Nc2ccc(Cl)cc2)n1C
4. CCNc1nc(NC(C)C(C)C)nc(SC)n1 (stereo unspecified)

1: 37 °C; 2: 59 to 65 °C; 3: 208 to 209 °C; 4: 65 °C
